Reported values of pIC50 for individual entries
assayedTarget: TDP1 (Homo sapiens)
Construct: made in house; host or cells: E. coli
assaySummary: Real-time fluorescence detection of TDP1 activity (FAM/BHQ1 oligonucleotide biosensor)
Type: biochemical
conditionParameters: real-time fluorescent test; 1.5 nM TDP1, 50 nM substrate, 26 °C; read-out: IC50, TDP1 activity
pIC50: −log10 of the molar value.

CC(=O)c1c(O)c(C)c(O)c2c1OC1=CC(=O)/C(=C(/C)NCCCC(=O)OCC3=CC[C@H]4C[C@@H]3C4(C)C)C(=O)[C@@]12C [13d]	< 5.00

Field request: pIC50 | item: C=C(C)[C@@H]1CC=C(CN/C(C)=C2\C(=O)C=C3Oc4c(C(C)=O)c(O)c(C)c(O)c4[C@@]3(C)C2=O)CC1 [11e] < 5.00

Repeat with CC(=O)c1c(O)c(C)c(O)c2c1OC1=CC(=O)/C(=C(/C)NCCCC(=O)OC/C=C(\C)CCC=C(C)C)C(=O)[C@@]12C [13b] < 5.00

###

System: HEK293A cells
assaySummary: Intrinsic cytotoxicity, EZ4U colorimetric test, HEK293A
Assay type: cell-based, human
conditionParameters: Figure 6
outcomeMeasure: intrinsic cytotoxicity (in words)

CC(=O)c1c(O)c(C)c(O)c2c1OC1=CC(=O)/C(=C(/C)NCCC3=CC[C@H]4C[C@@H]3C4(C)C)C(=O)[C@@]12C [11c]	non-cytotoxic
CC(=O)c1c(O)c(C)c(O)c2c1OC1=CC(=O)/C(=C(/C)NCC[C@@H](C)CCC=C(C)C)C(=O)[C@@]12C [11a]	non-cytotoxic

###

assayedTarget: TDP1 (Homo sapiens, UniProt Q9NUW8)
Construct: made in house; host or cells: E. coli
Sequence (Q9NUW8 whole entry): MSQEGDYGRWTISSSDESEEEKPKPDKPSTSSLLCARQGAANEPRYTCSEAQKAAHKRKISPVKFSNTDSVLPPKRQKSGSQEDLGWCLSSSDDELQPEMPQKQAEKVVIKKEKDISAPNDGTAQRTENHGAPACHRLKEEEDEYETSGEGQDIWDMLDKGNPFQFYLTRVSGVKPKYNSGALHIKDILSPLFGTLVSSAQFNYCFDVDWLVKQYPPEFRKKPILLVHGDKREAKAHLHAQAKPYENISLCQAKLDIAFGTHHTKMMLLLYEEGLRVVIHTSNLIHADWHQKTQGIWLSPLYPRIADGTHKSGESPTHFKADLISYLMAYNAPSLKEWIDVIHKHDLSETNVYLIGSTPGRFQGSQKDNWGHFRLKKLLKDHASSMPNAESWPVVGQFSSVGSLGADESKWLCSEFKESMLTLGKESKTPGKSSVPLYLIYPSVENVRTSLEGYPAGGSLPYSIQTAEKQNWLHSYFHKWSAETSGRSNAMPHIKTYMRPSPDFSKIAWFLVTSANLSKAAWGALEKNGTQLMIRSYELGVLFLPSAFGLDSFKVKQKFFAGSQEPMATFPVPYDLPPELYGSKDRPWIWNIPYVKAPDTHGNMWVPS
assaySummary: Real-time fluorescence detection of TDP1 activity (FAM/BHQ1 oligonucleotide biosensor)
Assay type: biochemical
conditionParameters: real-time fluorescent test; 1.5 nM TDP1, 50 nM substrate, 26 °C; read-out: IC50, TDP1 activity
In this section, each of the compounds is paired with its reported IC50.

The following compounds have reported results that may help.
CC(=O)c1c(O)c(C)c(O)c2c1OC1=CC(=O)/C(=C(/C)NCCCC(=O)OCC[C@H](C)CCC=C(C)C)C(=O)[C@@]12C [13a]	> 10 µM
CC(=O)c1c(O)c(C)c(O)c2c1OC1=CC(=O)/C(=C(/C)NCCCC(=O)OCCC3=CC[C@H]4C[C@@H]3C4(C)C)C(=O)[C@@]12C [13c]	> 10 µM

Please look at the following compound next.
Look up IC50: C=C(C)[C@@H]1CC=C(COC(=O)CCCN/C(C)=C2\C(=O)C=C3Oc4c(C(C)=O)c(O)c(C)c(O)c4[C@@]3(C)C2=O)CC1 [13e] > 10 µM

###

# reported IC50; entries follow
assayedTarget: TDP1 (Homo sapiens, UniProt Q9NUW8)
Construct: made in house; host or cells: E. coli
assaySummary: Real-time fluorescence detection of TDP1 activity (FAM/BHQ1 oligonucleotide biosensor)
Format: biochemical
conditionParameters: as repeated in Table S1; read-out: IC50
Could you give me the number in nM? Just the number is fine.

CC(=O)c1c(O)c(C)c(O)c2c1OC1=CC(=O)/C(=C(/C)NCC3=CC[C@H]4C[C@@H]3C4(C)C)C(=O)[C@@]12C [11d]	230
CC(=O)c1c(O)c(C)c(O)c2c1OC1=CC(=O)/C(=C(/C)NCC[C@@H](C)CCC=C(C)C)C(=O)[C@@]12C [11a]	400
CC(=O)c1c(O)c(C)c(O)c2c1OC1=CC(=O)/C(=C(/C)NCCC3=CC[C@H]4C[C@@H]3C4(C)C)C(=O)[C@@]12C [11c]	320

So what's the measured IC50 for this one? CC(=O)c1c(O)c(C)c(O)c2c1OC1=CC(=O)/C(=C(/C)NC/C=C(\C)CCC=C(C)C)C(=O)[C@@]12C [11b] 320
